# Test system: NL4.3 virus
# Assay Notes: Multi-cycle antiviral activity without and with human serum, p24 ELISA
# Protocol Conditions: Human immunodeficiency virus 1, 144 h, read-out: EC50 (uM) 10% FBS + 40% HS
Below, each of the molecules is paired with its reported EC50 value.

Ask: In one line, give reported EC50 of the entry O=C(NO)c1ncc([C@@H](O)c2ccc(F)c(Cl)c2)c(CO)c1O .
Reply: 0.001 µM

Ask: Output measured EC50 for this item: Cc1nnc(C(=O)NC(C)(C)c2nc(C(=O)NCc3ccc(F)cc3)c(O)c(=O)n2C)o1 [Raltegravir, reference compound]
Reply: 0.064 µM

Consider the record given below.
Ask: Consider the molecule O=C(NO)c1ncc([C@H](O)c2ccc(F)c(Cl)c2)c(CO)c1O and give its recorded EC50.
Reply: 0.006 µM

---

# System: recombinant HIV-1 integrase (Human immunodeficiency virus type 1 group M subtype B, UniProt P04585)
# Construct: recombinant HIV-1 integrase
# Assay Notes: Integrase strand transfer assay
# Protocol Conditions: compounds added after assembly, 10% DMSO, read-out: ST IC50
# IC50 values compiled below
Could you give me the number in nM? Just the number is fine.

Example entries begin here.
Ask: Name the recorded IC50 of the item O=C(O)C(O)=CC(=O)c1cc(OCc2ccccc2)cc(OCc2ccccc2)c1 [Example L-708906, reference compound] in your answer.
Reply: 45

Ask: Using the record for O=C(NO)c1ncc([C@@H](O)c2ccc(F)c(Cl)c2)c(CO)c1O , state its measured IC50.
Reply: 23

Ask: Report measured IC50; entry is O=C(NO)c1ncc(Cc2ccc(F)cc2)c(CO)c1O
Reply: 35

From here, focus on the item given below.
Ask: State, in one line, measured IC50 of O=C(NO)c1ncc([C@H](O)c2ccc(F)c(Cl)c2)c(CO)c1O
Reply: 56

---

# Tested on: wild type NL-4.3
# Assay Notes: Multi-cycle infection assay in MT-4 cells, MTT cytoprotection readout
# Type: cell-based, HIV-1
# Protocol Conditions: Human immunodeficiency virus 1, MT4, 144 h; MT-4 cells, 6 days incubation, MTT; read-out: EC50 (nM) multi-cycle
Hi! Just check whether EC50 is below 50 nM. Below gives Y, equal or above gives N.

Ask: Could you please tell me whether EC50 recorded for Cc1c(C(=O)c2ccc(F)cc2)cnc(C(=O)NO)c1O [Example 9] is less than 50 nM?
Reply: N

---

# Test system: wild type NL-4.3
# Assay Notes: Multi-cycle infection assay in MT-4 cells, MTT cytoprotection readout
# Format: cell-based, HIV-1
# Protocol Conditions: Human immunodeficiency virus 1, MT4, 144 h; MT-4 cells, 6 days incubation, MTT; read-out: EC50 (nM) multi-cycle
We begin with a simple list: items and their reported log10 EC50.
Log scale reminder: EC50 in nM, then log10 taken.

Ask: For the compound CONC(=O)c1ncc(C(O)c2ccc(F)cc2)c(CO)c1O (stereo not drawn) , give its reported log10 EC50.
Reply: 1.87

Ask: Consider the compound CN(O)C(=O)c1ncc(C(O)c2ccc(F)cc2)c(CO)c1O (stereo not drawn) and give its recorded log10 EC50.
Reply: 2.62

Ask: Give reported log10 EC50 value for O=C(NO)c1ncc(C(O)c2ccc(F)cc2)c(CO)c1O (stereo not drawn)
Reply: 0.30

Ask: Output measured log10 EC50 for this item: O=C(NO)c1ncc([C@H](O)c2ccc(F)c(Cl)c2)c(CO)c1O
Reply: 0.60

Ask: Read off the recorded log10 EC50 for O=C(NO)c1ncc([C@@H](O)c2ccc(F)c(Cl)c2)c(CO)c1O
Reply: 0.30

---
Ask: Identify log10 EC50 associated with the compound Cc1c(C(O)c2ccc(F)cc2)cnc(C(=O)NO)c1O (stereo not drawn)
Reply: 0.90
